System: CDKL2;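 also: KINOMEscan kinase panel screen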
recorded_conditions: concentration: 1 μM,replicates: in singlicate; n = 1
Reported %Inh values for the following compounds.
outcome_measure: %Inh

compound | outcome_measure | result
CC(C)c1nc(-c2cccc(NS(=O)(=O)c3ccccc3)c2)c(-c2ccnc(Nc3ccc4c(c3)CN(C)CC4)n2)s1 [GSK1649598] | %Inh | 100%
NC(=O)Nc1sc(-c2ccc(F)cc2)cc1C(N)=O [GW789449] | %Inh | 17%
N#Cc1cccc(C(=O)NC2CCN(c3ccnc(Nc4ccc(F)cc4)n3)C2)c1 (stereo not drawn) [GSK1379708] | %Inh | 17%
CC(=O)Nc1nc2cnc(Nc3cc(NC(=O)c4cccc(CC(C)(C)C#N)c4)ccc3C)nc2s1 | %Inh | 99.5%
Cc1nnc(-c2ccc3occ(-c4ccc(S(C)=O)cc4)c3n2)o1 (stereo not drawn) | %Inh | 0%
COc1cc2nccc(Nc3ccc(Oc4ccccc4)cc3)c2cc1OC.Cl [GI261656] | %Inh | 10%
Nc1nccc(-c2ccc3c(N)n[nH]c3c2)n1 [GSK1034945] | %Inh | 18%
Cl.c1ccc(Oc2ccc(Nc3ccnc4cc(-c5ccc(CN6CCNCC6)o5)ccc34)cc2)nc1 [GW567142] | %Inh | 0%
Cn1ccc2ncnc(Oc3ccc(NC(=O)Nc4ccnc(C(F)(F)F)c4)c(Cl)c3)c21 | %Inh | 3%
Cc1ccc(C(=O)Nc2ccc(Oc3ccc4nc(NC(=O)C5CC5)cn4c3)c(F)c2)c(=O)n1-c1ccccc1 | %Inh | 99.6%
O=C1NCCc2[nH]c(-c3ccncc3)cc21 | %Inh | 7%
CC(=O)Nc1ccc(-c2cc3ncnc(SCC(=O)O)c3s2)cc1 | %Inh | 0%
CNC(=O)c1ccccc1Nc1nc(Nc2cccc(CS(C)(=O)=O)c2)ncc1C.O=CO [GSK1520489] | %Inh | 52%
CSc1nccc(-c2c(-c3ccc(F)cc3)ncn2CCCN2CCOCC2)n1.Cl [SB-217146] | %Inh | 10%
CCn1c(-c2nonc2N)nc2cncc(CNC3CCNCC3)c21.Cl [SB-747651] | %Inh | 20%
Cc1ccc(CC(=O)N2CCc3cc(-c4cn(C)c5ncnc(N)c45)ccc32)cc1 [GSK2634758] | %Inh | 0%
COC(=O)Nc1nc2cc(Oc3ccc(NC(=O)Nc4cc(C(F)(F)F)ccc4Cl)cc3)ccc2[nH]1.Cl [GW697465] | %Inh | 81%
Cc1cccc2c(-c3ccncc3)c(-c3ccc(F)cc3)nn12.Cl [GW461487] | %Inh | 8%
Cc1ccn2nc(-c3ccc(F)cc3)c(-c3ccncc3)c2c1.Cl [GW457859] | %Inh | 28%
COc1cccc(CNC(=O)NC2CCN(c3ccnc(Nc4cc(OC)c(OC)c(OC)c4)n3)C2)c1 (stereo not drawn) [GSK1379765] | %Inh | 22%
COc1ccc(Nc2nccc(N3CCC(NC(=O)c4cccc(C#N)c4)C3)n2)cc1 (stereo not drawn) [GSK1379730] | %Inh | 0%
C[C@@H]1CNc2c(sc3ccc4nc(-c5ccc(O)cc5)ccc4c23)C(=O)N1 | %Inh | 0%
Cn1ccc2ncnc(Oc3ccc(NC(=O)Nc4cncc(C(F)(F)F)c4)c(Cl)c3)c21 | %Inh | 0%
O=C(Nc1n[nH]c2cc(-c3ccco3)ccc12)C1CC1 [SB-737447] | %Inh | 86%
Cl.Nc1n[nH]c2cc(-c3ccccn3)ccc12 [GSK2189892] | %Inh | 24%
O=c1[nH]cc(-c2ccc(O)cc2)c2sc(-c3ccncc3)cc12 [GSK1033723] | %Inh | 9%
CN(c1ccccc1CNc1nc(Nc2ccc3c(c2)CC(=O)N3)ncc1C(F)(F)F)S(C)(=O)=O | %Inh | 8%
CN(c1ccc2c(c1)nc(NCc1ccc(F)cc1)n2C)c1ccnc(Nc2ccc(CS(C)(=O)=O)cc2)n1.Cl [GW813244] | %Inh | 40%
COc1cc2ncn(-c3cc(OCC4CCCCC4)c(C(N)=O)s3)c2cc1OC [GSK204559] | %Inh | 1%
CN1CCN(CCNc2nc3cc(Oc4ccc(NC(=O)Nc5cc(C(F)(F)F)ccc5F)cc4)ccc3[nH]2)CC1.Cl.Cl [GW768504] | %Inh | 56%
Cc1n[nH]c2cc(Nc3ccnc(Nc4cccc(CN5CCOCC5)c4)n3)ccc12 [GW682569] | %Inh | 17%
O=C(NOCC1CC1)c1cc(Br)c(F)c(F)c1Nc1ccc(I)cc1Cl | %Inh | 0%
NC(=O)c1ccc(-c2cc3ncnc(SCC(=O)O)c3s2)cc1 | %Inh | 0%
